Item-by-item account of IC50
# TGT: T1, recombinant biotinylated human PAR2 extracellular domain (residues 1-75), N-terminal AviTag, C-terminal Flag … (human, UniProt P55085 26-75, biotin on the AviTag (enzymatic biotinylation))
# T1 construct: also called Bio-human-PAR2 ECD; human PAR2 ECD; not shown: N-terminal AviTag (Avidity LLC); C-terminal Flag and poly Histidine tags
# ASSAY_EXPLANATION: HTRF competition with Par0067 IgG, pH 7.4, scFv
Form entry: value (nM) — number only.

As a guide, the following entries are already answered.
PaB670080 scFv (scFv, V domains shown, purified scFv) VH: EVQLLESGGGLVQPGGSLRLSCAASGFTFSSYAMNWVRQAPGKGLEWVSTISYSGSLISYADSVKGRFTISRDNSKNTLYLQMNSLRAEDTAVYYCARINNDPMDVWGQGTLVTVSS VL: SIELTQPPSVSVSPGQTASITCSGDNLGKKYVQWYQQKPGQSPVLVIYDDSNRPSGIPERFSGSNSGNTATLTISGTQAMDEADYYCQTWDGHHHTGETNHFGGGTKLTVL
16.6
PaB670079 scFv (scFv, V domains shown, purified scFv; also called ZZ1OZJ-G05) VH: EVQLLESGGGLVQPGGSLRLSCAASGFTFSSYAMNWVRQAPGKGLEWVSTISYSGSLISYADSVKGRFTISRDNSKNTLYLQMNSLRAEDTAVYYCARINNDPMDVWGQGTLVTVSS VL: SIELTQPPSVSVSPGQTASITCSGDNLGKKYVQWYQQKPGQSPVLVIYDDSNRPSGIPERFSGSNSGNTATLTISGTQAMDEADYYCQHWDGHHTTGETNHFGGGTKLTVL
44.2
PaB670068 scFv (scFv, V domains shown, purified scFv; also called ZZ1KXE-B01) VH: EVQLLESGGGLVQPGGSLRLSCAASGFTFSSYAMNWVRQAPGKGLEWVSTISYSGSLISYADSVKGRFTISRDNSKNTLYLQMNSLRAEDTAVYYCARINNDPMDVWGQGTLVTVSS VL: SIELTQPPSVSVSPGQTASITCSGDNLGKKYVQWYQQKPGQSPVLVIYDDSNRPSGIPERFSGSNSGNTATLTISGTQAMDEADYYCQTWDGHHTHGEHHVFGGGTKLTVL
77.8

Query binder follows.
Q: Endpoint output: IC50 of PaB670075 scFv (scFv, V domains shown, purified scFv; also called ZZ1NHH-A05) VH: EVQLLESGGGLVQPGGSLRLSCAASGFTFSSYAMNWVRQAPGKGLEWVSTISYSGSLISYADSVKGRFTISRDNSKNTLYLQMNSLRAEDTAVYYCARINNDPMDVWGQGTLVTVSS VL: SIELTQPPSVSVSPGQTASITCSGDNLGKKYVQWYQQKPGQSPVLVIYDDSNRPSGIPERFSGSNSGNTATLTISGTQAMDEADYYCQHWDGNHHHGETNHFGGGTKLTVL . Value?
Result: 102
